Exercise: for every item that follows, state its recorded Ki.
Molecular target: (α1)2β1γδ nAChR (Tetronarce californica, UniProt P02710+P02714+P02718)
Sequence (P02718 22-522): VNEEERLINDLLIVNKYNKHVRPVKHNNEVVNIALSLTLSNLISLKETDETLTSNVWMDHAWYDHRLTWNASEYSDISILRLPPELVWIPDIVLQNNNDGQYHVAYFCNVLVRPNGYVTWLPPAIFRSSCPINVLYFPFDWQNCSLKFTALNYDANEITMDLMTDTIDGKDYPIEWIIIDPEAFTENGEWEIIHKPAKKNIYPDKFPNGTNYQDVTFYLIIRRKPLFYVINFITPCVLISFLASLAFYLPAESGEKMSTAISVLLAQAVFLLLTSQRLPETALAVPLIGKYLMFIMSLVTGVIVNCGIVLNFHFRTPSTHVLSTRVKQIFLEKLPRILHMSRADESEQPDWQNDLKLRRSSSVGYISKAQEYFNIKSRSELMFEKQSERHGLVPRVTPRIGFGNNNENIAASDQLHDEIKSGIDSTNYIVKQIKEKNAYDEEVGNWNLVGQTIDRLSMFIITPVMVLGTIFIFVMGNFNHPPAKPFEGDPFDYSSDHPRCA
Sequence (P02714 18-506): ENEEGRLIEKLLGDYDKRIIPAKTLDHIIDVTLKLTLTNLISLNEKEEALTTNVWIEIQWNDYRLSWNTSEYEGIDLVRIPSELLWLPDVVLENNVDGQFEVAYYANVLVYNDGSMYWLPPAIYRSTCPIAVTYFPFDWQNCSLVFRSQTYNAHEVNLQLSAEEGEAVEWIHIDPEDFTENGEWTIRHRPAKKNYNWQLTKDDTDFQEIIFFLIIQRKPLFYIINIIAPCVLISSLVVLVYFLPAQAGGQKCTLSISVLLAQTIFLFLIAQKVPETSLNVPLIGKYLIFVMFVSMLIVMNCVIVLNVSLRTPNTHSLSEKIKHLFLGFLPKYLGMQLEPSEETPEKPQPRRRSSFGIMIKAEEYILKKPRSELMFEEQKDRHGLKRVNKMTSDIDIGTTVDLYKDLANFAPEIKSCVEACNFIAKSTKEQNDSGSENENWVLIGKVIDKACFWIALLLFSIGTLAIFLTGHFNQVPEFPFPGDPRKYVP
Sequence (P02712 25-493, further chain): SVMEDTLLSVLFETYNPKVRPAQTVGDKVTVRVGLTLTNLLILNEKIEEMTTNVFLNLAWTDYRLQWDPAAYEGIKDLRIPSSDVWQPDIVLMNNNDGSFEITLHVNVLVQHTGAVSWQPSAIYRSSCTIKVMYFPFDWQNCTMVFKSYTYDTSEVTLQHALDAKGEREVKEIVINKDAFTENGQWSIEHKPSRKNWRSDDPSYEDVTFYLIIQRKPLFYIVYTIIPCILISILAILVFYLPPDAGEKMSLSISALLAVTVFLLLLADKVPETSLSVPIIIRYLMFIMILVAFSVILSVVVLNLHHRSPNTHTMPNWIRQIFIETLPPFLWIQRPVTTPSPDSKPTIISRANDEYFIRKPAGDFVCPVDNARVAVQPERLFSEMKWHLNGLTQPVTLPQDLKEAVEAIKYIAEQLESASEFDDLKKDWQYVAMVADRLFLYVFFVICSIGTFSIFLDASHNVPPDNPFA
Sequence (P02710 25-461): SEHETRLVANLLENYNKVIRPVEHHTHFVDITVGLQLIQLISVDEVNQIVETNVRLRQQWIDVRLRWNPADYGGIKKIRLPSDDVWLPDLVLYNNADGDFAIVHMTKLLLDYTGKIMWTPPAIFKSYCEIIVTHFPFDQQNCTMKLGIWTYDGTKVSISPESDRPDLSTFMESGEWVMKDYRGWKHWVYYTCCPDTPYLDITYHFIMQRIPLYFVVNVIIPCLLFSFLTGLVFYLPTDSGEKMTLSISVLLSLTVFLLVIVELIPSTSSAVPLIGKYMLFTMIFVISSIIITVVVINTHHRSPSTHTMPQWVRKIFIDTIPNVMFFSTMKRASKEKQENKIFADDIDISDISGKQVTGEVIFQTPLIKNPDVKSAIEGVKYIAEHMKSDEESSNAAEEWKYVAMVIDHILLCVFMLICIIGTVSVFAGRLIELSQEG
Assay: Competition binding assay using

Worked set:
>>> endpoint_value("CS(=O)(=O)N1C[C@@H]2CNC[C@@H](C2)C1 [Compound 34]")
"> 10 µM"
>>> endpoint_value("O=C(N1CCCC1)N1C[C@@H]2CNC[C@@H](C2)C1.O=C(O)/C=C/C(=O)O [Compound 67]")
"> 10 µM"
>>> endpoint_value("O=C(N1CCC(Cc2ccccc2)CC1)N1C[C@@H]2CNC[C@@H](C2)C1 [Compound 69]")
"> 5 µM"

// next entry
Form field Ki, entry O=[N+]([O-])c1ccc(S(=O)(=O)N2C[C@@H]3CNC[C@@H](C3)C2)cc1 [Compound 40] : > 10 µM

All values here come from paper PMC4519239.
